experimental_target: N-terminal HiBiT tagged BCL6 (Homo sapiens, UniProt P41182)
Construct: expressed in transfected cells; host or cells: HT1080 (ATCC CCL-121), stably transduced with lentivirus pLV-UBC-N-HiBiT-BCL6-PGK-puro
assay: HiBiT based degradation assay
Assay type: cell-based
conditions_used: HT1080 cells expressing N-terminal HiBiT tagged BCL6; 5 hours of incubation; four-parameter logistic model; read-out: EC50 (5 hr)
value_kind: DC50

With N-terminal HiBiT tagged BCL6 (Homo sapiens, UniProt P41182) as the test system, CNC(=O)COc1cc2cc(Nc3nc(N4CCC(Oc5ccc6c(C7CCC(=O)NC7=O)nn(C)c6c5)CC4)ncc3Cl)cnc2n(C)c1=O (centres unmarked) showed DC50 of < 10 nM

With N-terminal HiBiT tagged BCL6 (Homo sapiens, UniProt P41182) as the test system, CNC(=O)COc1cc2cc(Nc3nc(N4CCN(CC5CCN(c6cccc7c(C8CCC(=O)NC8=O)nn(C)c67)CC5)C(C)(C)C4)ncc3Cl)cnc2n(C(C)C)c1=O (centres unmarked) showed DC50 of 10 to 100 nM

With N-terminal HiBiT tagged BCL6 (Homo sapiens, UniProt P41182) as the test system, CNC(=O)COc1cc2cc(Nc3nc(N4CCN(CC5CCN(c6cccc7c(C8CCC(=O)NC8=O)nn(C)c67)CC5)C[C@H]4C)ncc3Cl)cnc2n(C(C)C)c1=O (some centres unmarked) [Compound 168b] showed DC50 of 10 to 100 nM

With N-terminal HiBiT tagged BCL6 (Homo sapiens, UniProt P41182) as the test system, CNC(=O)COc1cc2cc(Nc3nc(N4CCC(CN5CCN(c6cccc7c(C8CCC(=O)NC8=O)nn(C)c67)CC5(C)C)CC4)ncc3Cl)cnc2n(C(C)C)c1=O (centres unmarked) showed DC50 of 10 to 100 nM

With N-terminal HiBiT tagged BCL6 (Homo sapiens, UniProt P41182) as the test system, CNC(=O)COc1cc2cc(Nc3nc(N4C[C@@H](C)N(CC5CCN(c6cccc7c(C8CCC(=O)NC8=O)nn(C)c67)CC5)C[C@@H]4C)ncc3Cl)cnc2n(C(C)C)c1=O (some centres unmarked) [Compound 179b] showed DC50 of 100 to 1000 nM

###

experimental_target: N-terminal HiBiT tagged BCL6 (Homo sapiens, UniProt P41182)
Construct: expressed in transfected cells; host or cells: HT1080 (ATCC CCL-121), stably transduced with lentivirus pLV-UBC-N-HiBiT-BCL6-PGK-puro
assay: HiBiT based degradation assay
Format: cell-based
conditions_used: HT1080 cells expressing N-terminal HiBiT tagged BCL6; 5 hours of incubation; BCL6 degradation normalized with DMSO control
value_kind: Ymin (5 hr)

CNC(=O)COc1cc2cc(Nc3nc(N4CC5COCC(C4)N5CC4CCN(c5cccc6c(C7CCC(=O)NC7=O)nn(C)c56)CC4)ncc3Cl)cnc2n(C)c1=O (stereo not drawn) [Compound 117] = ++++ (Ymin < 30%)
CNC(=O)COc1cc2cc(Nc3nc(N4CC5(CCC(Nc6ccc7c(C8CCC(=O)NC8=O)nn(C)c7c6)CC5)C4)ncc3Cl)cnc2n(C(C)C)c1=O (stereo not drawn) [Compound 182] = ++++ (Ymin < 30%)

###

Give measured DC50 for each item. Keep answers brief.
experimental_target: N-terminal HiBiT tagged BCL6 (Homo sapiens, UniProt P41182)
Construct: expressed in transfected cells; host or cells: HT1080 (ATCC CCL-121), stably transduced with lentivirus pLV-UBC-N-HiBiT-BCL6-PGK-puro
assay: HiBiT based degradation assay
Format: cell-based
conditions_used: HT1080 cells expressing N-terminal HiBiT tagged BCL6; 5 hours of incubation; four-parameter logistic model; read-out: EC50 (5 hr)

For CNC(=O)COc1cc2cc(Nc3nc(N4CCN(C[C@H]5CCN(c6ccc7c(C8CCC(=O)NC8=O)nn(C)c7c6)C5)CC4)ncc3Cl)cnc2n(C(C)C)c1=O (some centres unmarked) [Compound 228b] the compound record lists DC50 as 10 to 100 nM

For CNC(=O)COc1cc2cc(Nc3nc(N4CCN([C@H]5C[C@H](OC6CCN(c7ccc8c(C9CCC(=O)NC9=O)nn(C)c8c7)CC6)C5)CC4)ncc3Cl)cnc2n(C(C)C)c1=O (some centres unmarked) [Compound 227a] the compound record lists DC50 as < 10 nM

For CNC(=O)COc1cc2cc(Nc3nc(N4CC5(CCC(Oc6cccc7c(C8CCC(=O)NC8=O)nn(C)c67)CC5)C4)ncc3Cl)cnc2n(C)c1=O (centres unmarked) the compound record lists DC50 as < 10 nM

For CNC(=O)COc1cc2cc(Nc3nc(N4CCN(CC5CCN(c6cccc7c(C8CCC(=O)NC8=O)nn(C)c67)CC5)C[C@@H]4C)ncc3Cl)cnc2n(C(C)C)c1=O (some centres unmarked) [Compound 168a] the compound record lists DC50 as 10 to 100 nM

For CNC(=O)COc1cc2cc(Nc3nc(N4CCN(C[C@H]5CCN(c6ccc7c(C8CCC(=O)NC8=O)nn(C)c7c6)C5)[C@@H](C)C4)ncc3Cl)cnc2n(C(C)C)c1=O (some centres unmarked) [Compound 216a] the compound record lists DC50 as 10 to 100 nM

For CNC(=O)COc1cc2cc(Nc3nc(N4C[C@@H]5[C@@H](CN6CCN(c7cccc8c(C9CCC(=O)NC9=O)nn(C)c78)CC6)[C@@H]5C4)ncc3Cl)cnc2n(C)c1=O (some centres unmarked) [Compound 136a] the compound record lists DC50 as < 10 nM

For CNC(=O)COc1cc2cc(Nc3nc(N4CCN(C[C@@H]5CCN(c6ccc7c(C8CCC(=O)NC8=O)nn(C)c7c6)C5)[C@@H](C)C4)ncc3Cl)cnc2n(C(C)C)c1=O (some centres unmarked) [Compound 216b] the compound record lists DC50 as 10 to 100 nM

For CNC(=O)COc1cc2cc(Nc3nc(N4CCC(CN5CCN(c6cccc7c(C8CCC(=O)NC8=O)nn(C)c67)[C@@H](C)C5)CC4)ncc3F)cnc2n(C(C)C)c1=O (some centres unmarked) [Compound 210a] the compound record lists DC50 as 10 to 100 nM

For CNC(=O)COc1cc2cc(Nc3nc(N4CCCN(CC5CCN(c6cccc7c(C8CCC(=O)NC8=O)nn(C)c67)CC5)CC4)ncc3Cl)cnc2n(C)c1=O (centres unmarked) the compound record lists DC50 as 10 to 100 nM

For CNC(=O)COc1cc2cc(Nc3nc(N4CCC(CN5CCCN(c6ccc7c(C8CCC(=O)NC8=O)nn(C)c7c6)CC5)CC4)ncc3Cl)cnc2n(C(C)C)c1=O (centres unmarked) the compound record lists DC50 as 10 to 100 nM

For CNC(=O)COc1cc2cc(Nc3nc(N4CC5(CCC(Nc6ccc7c(C8CCC(=O)NC8=O)nn(C)c7c6)CC5)C4)ncc3Cl)cnc2n(C(C)C)c1=O (centres unmarked) the compound record lists DC50 as < 10 nM

###

Give measured DC50 for each item. Keep answers brief.
experimental_target: N-terminal HiBiT tagged BCL6 (Homo sapiens, UniProt P41182)
Construct: expressed in transfected cells; host or cells: HT1080 (ATCC CCL-121), stably transduced with lentivirus pLV-UBC-N-HiBiT-BCL6-PGK-puro
assay: HiBiT based degradation assay
Format: cell-based
conditions_used: HT1080 cells expressing N-terminal HiBiT tagged BCL6; 5 hours of incubation; four-parameter logistic model; read-out: EC50 (5 hr)

For CNC(=O)COc1cc2cc(Nc3nc(N4CCN(CC5CCN(c6ccc7c(C8CCC(=O)NC8=O)nn(C)c7c6)CC5)C[C@@H]4CO)ncc3Cl)cnc2n(C(C)C)c1=O (stereo partly drawn) [Compound 151a] the molecule record lists DC50 as < 10 nM

For CNC(=O)COc1cc2cc(Nc3nc(N4CCC(CC5CCN(c6cccc7c(C8CCC(=O)NC8=O)nn(C)c67)CC5)CC4)ncc3Cl)cnc2n(C)c1=O (stereo not drawn) [Compound 139] the molecule record lists DC50 as 100 to 1000 nM

For CNC(=O)COc1cc2cc(Nc3nc(N4CCC5(CCC(CN6CCC(c7ccc8c(C9CCC(=O)NC9=O)nn(C)c8c7)CC6)CC5)CC4)ncc3Cl)cnc2n(C(C)C)c1=O (stereo not drawn) [Compound 237] the molecule record lists DC50 as < 10 nM

###

experimental_target: N-terminal HiBiT tagged BCL6 (Homo sapiens, UniProt P41182)
Construct: expressed in transfected cells; host or cells: HT1080 (ATCC CCL-121), stably transduced with lentivirus pLV-UBC-N-HiBiT-BCL6-PGK-puro
assay: HiBiT based degradation assay
Assay type: cell-based
conditions_used: HT1080 cells expressing N-terminal HiBiT tagged BCL6; 5 hours of incubation; four-parameter logistic model; read-out: EC50 (5 hr)
value_kind: DC50

With N-terminal HiBiT tagged BCL6 (Homo sapiens, UniProt P41182) as the test system, CNC(=O)COc1cc2cc(Nc3nc(N4CC[C@@H](CN5CCN(c6ccc7c(C8CCC(=O)NC8=O)nn(C)c7c6)CC5)[C@@H](C)C4)ncc3Cl)cnc2n(C(C)C)c1=O (stereo partly shown) [Compound 176c] showed DC50 of 10 to 100 nM

With N-terminal HiBiT tagged BCL6 (Homo sapiens, UniProt P41182) as the test system, CNC(=O)COc1cc2cc(Nc3nc(N4CCC5(CCN(CC6CCN(c7cccc8c(C9CCC(=O)NC9=O)nn(C)c78)CC6)CC5)CC4)ncc3Cl)cnc2n(C)c1=O (stereo not shown) showed DC50 of 10 to 100 nM

With N-terminal HiBiT tagged BCL6 (Homo sapiens, UniProt P41182) as the test system, CNC(=O)COc1cc2cc(Nc3nc(N4CC5(CC[C@@H](Nc6ccc7c(C8CCC(=O)NC8=O)nn(C)c7c6)[C@H](C)C5)C4)ncc3Cl)cnc2n(C(C)C)c1=O (relative stereo) [Compound 180d] showed DC50 of < 10 nM

With N-terminal HiBiT tagged BCL6 (Homo sapiens, UniProt P41182) as the test system, CNC(=O)COc1cc2cc(Nc3nc(N4CCC(CN5CCN(c6cccc7c(C8CCC(=O)NC8=O)nn(C)c67)C[C@@H]5CO)CC4)ncc3Cl)cnc2n(C(C)C)c1=O (stereo partly shown) [Compound 231b] showed DC50 of < 10 nM

With N-terminal HiBiT tagged BCL6 (Homo sapiens, UniProt P41182) as the test system, CNC(=O)COc1cc2cc(Nc3nc(N4CC[C@@H](CN5CCN(c6ccc7c(C8CCC(=O)NC8=O)nn(C)c7c6)CC5)[C@H](C)C4)ncc3Cl)cnc2n(C(C)C)c1=O (stereo partly shown) [Compound 176d] showed DC50 of < 10 nM

With N-terminal HiBiT tagged BCL6 (Homo sapiens, UniProt P41182) as the test system, CNC(=O)COc1cc2cc(Nc3nc(N4CCC(CC5CCN(c6ccc7c(C8CCC(=O)NC8=O)nn(C)c7c6)CC5)CC4)ncc3Cl)cnc2n(C)c1=O (stereo not shown) showed DC50 of < 10 nM

With N-terminal HiBiT tagged BCL6 (Homo sapiens, UniProt P41182) as the test system, CNC(=O)COc1cc2cc(Nc3nc(N4CCN(CC5CCN(c6cccc7c(C8CCC(=O)NC8=O)nn(C)c67)CC5)CC4)ncc3Cl)cnc2n(CC(F)(F)F)c1=O (stereo not shown) showed DC50 of 10 to 100 nM

With N-terminal HiBiT tagged BCL6 (Homo sapiens, UniProt P41182) as the test system, CNC(=O)COc1cc2cc(Nc3nc(N4CCN(CCC5CCN(c6cccc7c(C8CCC(=O)NC8=O)nn(C)c67)CC5)CC4)ncc3Cl)cnc2n(C)c1=O (stereo not shown) showed DC50 of < 10 nM

With N-terminal HiBiT tagged BCL6 (Homo sapiens, UniProt P41182) as the test system, CNC(=O)COc1cc2cc(Nc3nc(N4CC5(CCC(Nc6c(F)ccc7c(C8CCC(=O)NC8=O)nn(C)c67)CC5)C4)ncc3Cl)cnc2n(C(C)C)c1=O (stereo not shown) showed DC50 of 10 to 100 nM

With N-terminal HiBiT tagged BCL6 (Homo sapiens, UniProt P41182) as the test system, CNC(=O)COc1cc2cc(Nc3nc(N4CC5(CC[C@H](Nc6ccc7c(C8CCC(=O)NC8=O)nn(C)c7c6)[C@@H](C)C5)C4)ncc3Cl)cnc2n(C)c1=O (single isomer, unassigned) [Compound 156a] showed DC50 of < 10 nM

With N-terminal HiBiT tagged BCL6 (Homo sapiens, UniProt P41182) as the test system, CNC(=O)COc1cc2cc(Nc3nc(N4CCN(CC5CCN(c6cccc7c(C8CCC(=O)NC8=O)nn(C)c67)CC5)[C@@H](C(C)(C)O)C4)ncc3Cl)cnc2n(C(C)C)c1=O (stereo partly shown) [Compound 208b] showed DC50 of 10 to 100 nM

With N-terminal HiBiT tagged BCL6 (Homo sapiens, UniProt P41182) as the test system, CNC(=O)COc1cc2cc(Nc3nc(N4CC5(CC[C@@H](Oc6ccc7c(C8CCC(=O)NC8=O)nn(C)c7c6)[C@H](C)C5)C4)ncc3Cl)cnc2n(C(C)C)c1=O (relative stereo) [Compound 185d] showed DC50 of < 10 nM

With N-terminal HiBiT tagged BCL6 (Homo sapiens, UniProt P41182) as the test system, CNC(=O)COc1cc2cc(Nc3nc(N4CC5COCC(C4)N5CC4CCN(c5cccc6c(C7CCC(=O)NC7=O)nn(C)c56)CC4)ncc3Cl)cnc2n(C)c1=O (stereo not shown) showed DC50 of < 10 nM

Measured values drawn from patent US20260241012A1 for this set.
